- Species on record: Rattus norvegicus
- assay info: Selectivity index, ratio of IC50 for rat serum BuChE to IC50 for rat cortex AChE
- Format: cell-free
measured quantity: Ratio IC50

What measured Ratio IC50 goes with COc1cc2oc(-c3ccc(OC(=O)N4CCN(Cc5ccccc5)CC4)cc3)cc(=O)c2c(O)c1OC ?
> 10.8

What measured Ratio IC50 goes with COc1cc2oc(-c3ccc(OC(=O)N4CCCCC4)cc3)cc(=O)c2c(O)c1OC ?
> 5.6

What measured Ratio IC50 goes with COc1cc2oc(-c3cccc(OC(=O)N(C)C)c3)cc(=O)c2c(O)c1OC ?
0.9

* * *

- assay info: Inhibition of rat serum BuChE using butyrylthiocholine iodide as substrate after 15 mins by Ellman method
- Format: cell-free
measured quantity: pIC50
Reminder that pIC50 means the negative base-10 logarithm of the concentration expressed in mol/L.

What measured pIC50 goes with COc1cc2oc(-c3ccc(OC(=O)N4CCN(C)CC4)cc3)cc(=O)c2c(OC)c1OC ?
4.20

What measured pIC50 goes with COc1cc2oc(-c3ccc(OC(=O)N(C(C)C)C(C)C)cc3)cc(=O)c2c(OC)c1OC ?
4.42

What measured pIC50 goes with CCN(CC)C(=O)Oc1cccc(-c2cc(=O)c3c(O)c(OC)c(OC)cc3o2)c1 ?
4.46

What measured pIC50 goes with COc1cc2oc(-c3ccc(OC(=O)N(C)C)cc3)cc(=O)c2c(OC)c1OC ?
5.14

* * *

- assay info: Antioxidant activity assessed as trolox equivalent of […]-induced radical scavenging activity by ORAC-FL method
- Format: physicochemical
Checkbox rule: Activity lower than 0.9 = true; Activity not lower than 0.9 = false.

In the record for COc1cc2oc(-c3cccc(OC(=O)N4CCCCC4)c3)cc(=O)c2c(OC)c1OC , is Activity less than 0.9?
true

In the record for COc1cc2oc(-c3cccc(OC(=O)N4CCOCC4)c3)cc(=O)c2c(OC)c1OC , is Activity less than 0.9?
true

In the record for COc1cc2oc(-c3cccc(O)c3)cc(=O)c2c(O)c1OC , is Activity less than 0.9?
false

In the record for COc1cc2oc(-c3cccc(OC(=O)N(C)C)c3)cc(=O)c2c(OC)c1OC , is Activity less than 0.9?
true

In the record for COc1cc2oc(-c3ccc(OC(=O)N(C)C)cc3)cc(=O)c2c(OC)c1OC , is Activity less than 0.9?
true

In the record for CCN(C)C(=O)Oc1ccc(-c2cc(=O)c3c(OC)c(OC)c(OC)cc3o2)cc1 , is Activity less than 0.9?
true

In the record for COc1cc2oc(-c3cccc(OC(=O)N4CCN(Cc5ccccc5)CC4)c3)cc(=O)c2c(OC)c1OC , is Activity less than 0.9?
true

In the record for COc1cc2oc(-c3cccc(OC(=O)N4CCN(Cc5ccccc5)CC4)c3)cc(=O)c2c(O)c1OC , is Activity less than 0.9?
false

In the record for COc1cc2oc(-c3ccc(OC(=O)N(C)C)cc3)cc(=O)c2c(O)c1OC , is Activity less than 0.9?
false

In the record for CCN(CC)C(=O)Oc1ccc(-c2cc(=O)c3c(O)c(OC)c(OC)cc3o2)cc1 , is Activity less than 0.9?
false

In the record for COc1cc2oc(-c3cccc(OC(=O)N4CCN(C)CC4)c3)cc(=O)c2c(O)c1OC , is Activity less than 0.9?
false

In the record for CCN(CC)C(=O)Oc1ccc(-c2cc(=O)c3c(OC)c(OC)c(OC)cc3o2)cc1 , is Activity less than 0.9?
true

In the record for COc1cc2oc(-c3cccc(OC(=O)N4CCCCC4)c3)cc(=O)c2c(O)c1OC , is Activity less than 0.9?
false

In the record for COc1cc2oc(-c3cccc(OC(=O)N(C)C)c3)cc(=O)c2c(O)c1OC , is Activity less than 0.9?
false

In the record for COc1cc2oc(-c3cccc(O)c3)cc(=O)c2c(OC)c1OC , is Activity less than 0.9?
false

In the record for COc1cc2oc(-c3ccc(OC(=O)N4CCCCC4)cc3)cc(=O)c2c(OC)c1OC , is Activity less than 0.9?
true

In the record for COc1cc2oc(-c3ccc(OC(=O)N4CCOCC4)cc3)cc(=O)c2c(OC)c1OC , is Activity less than 0.9?
true

In the record for COc1cc2oc(-c3ccc(OC(=O)N4CCN(C)CC4)cc3)cc(=O)c2c(OC)c1OC , is Activity less than 0.9?
true

* * *

Please respond with reported pIC50 for every item in the list.
- assay info: Inhibition of rat serum BuChE using butyrylthiocholine iodide as substrate after 15 mins by Ellman method
- Type: cell-free
Reminder that pIC50 means the negative base-10 logarithm of the concentration expressed in mol/L.

What measured pIC50 goes with COc1cc2oc(-c3cccc(OC(=O)N4CCN(Cc5ccccc5)CC4)c3)cc(=O)c2c(O)c1OC ?
4.80

What measured pIC50 goes with CCN(CC)C(=O)Oc1ccc(-c2cc(=O)c3c(O)c(OC)c(OC)cc3o2)cc1 ?
4.65

What measured pIC50 goes with COc1cc2oc(-c3cccc(OC(=O)N4CCN(C)CC4)c3)cc(=O)c2c(O)c1OC ?
4.17

* * *

- assay info: Inhibition of rat serum BuChE using butyrylthiocholine iodide as substrate after 15 mins by Ellman method
- Assay type: cell-free
measured quantity: IC50 (µM)
Value expressed in µM; do not type the unit.

What measured IC50 goes with CCN(CC)C(=O)Oc1cccc(-c2cc(=O)c3c(OC)c(OC)c(OC)cc3o2)c1 ?
30.1

What measured IC50 goes with COc1cc2oc(-c3cccc(OC(=O)N(C)C)c3)cc(=O)c2c(O)c1OC ?
23.6

What measured IC50 goes with COc1cc2oc(-c3ccc(OC(=O)N(C)C)cc3)cc(=O)c2c(O)c1OC ?
61.5

What measured IC50 goes with COc1cc2oc(-c3ccc(OC(=O)N4CCN(Cc5ccccc5)CC4)cc3)cc(=O)c2c(OC)c1OC ?
37.2

What measured IC50 goes with COc1cc2oc(-c3cccc(OC(=O)N4CCCCC4)c3)cc(=O)c2c(OC)c1OC ?
26.8

What measured IC50 goes with COc1cc2oc(-c3cccc(OC(=O)N4CCN(Cc5ccccc5)CC4)c3)cc(=O)c2c(OC)c1OC ?
7.1

* * *

- assay info: Inhibition of rat serum BuChE using butyrylthiocholine iodide as substrate after 15 mins by Ellman method
- Assay type: cell-free
measured quantity: IC50 (µM)
Value expressed in µM; do not type the unit.

What measured IC50 goes with CCN(C)C(=O)Oc1cccc([C@H](C)N(C)C)c1 ?
1.4

What measured IC50 goes with CCN(C)C(=O)Oc1cccc(-c2cc(=O)c3c(OC)c(OC)c(OC)cc3o2)c1 ?
38.1

What measured IC50 goes with CCN(C)C(=O)Oc1ccc(-c2cc(=O)c3c(O)c(OC)c(OC)cc3o2)cc1 ?
38.1

What measured IC50 goes with CCN(C)C(=O)Oc1ccc(-c2cc(=O)c3c(OC)c(OC)c(OC)cc3o2)cc1 ?
6.2

* * *

- assay info: Antioxidant activity assessed as trolox equivalent of […]-induced radical scavenging activity by ORAC-FL method
- Assay type: physicochemical
Checkbox rule: Activity lower than 1 = Met; Activity not lower than 1 = Not met.

In the record for CCN(C)C(=O)Oc1ccc(-c2cc(=O)c3c(O)c(OC)c(OC)cc3o2)cc1 , is Activity less than 1?
Not met

In the record for COc1cc2oc(-c3ccc(O)cc3)cc(=O)c2c(O)c1OC , is Activity less than 1?
Not met

In the record for CCN(CC)C(=O)Oc1cccc(-c2cc(=O)c3c(O)c(OC)c(OC)cc3o2)c1 , is Activity less than 1?
Not met

In the record for COc1cc2oc(-c3cccc(OC(=O)N(C(C)C)C(C)C)c3)cc(=O)c2c(O)c1OC , is Activity less than 1?
Not met

In the record for COc1cc2oc(-c3cccc(OC(=O)N4CCN(C)CC4)c3)cc(=O)c2c(OC)c1OC , is Activity less than 1?
Met

In the record for COc1cc2oc(-c3ccc(OC(=O)N4CCN(Cc5ccccc5)CC4)cc3)cc(=O)c2c(OC)c1OC , is Activity less than 1?
Met

* * *

- Species on record: Rattus norvegicus
- assay info: Selectivity index, ratio of IC50 for rat serum BuChE to IC50 for rat cortex AChE
- Format: cell-free
Checkbox rule: Ratio IC50 lower than 0.7 = class 1; Ratio IC50 not lower than 0.7 = class 0.

In the record for COc1cc2oc(-c3ccc(OC(=O)N4CCN(Cc5ccccc5)CC4)cc3)cc(=O)c2c(OC)c1OC , is Ratio IC50 less than 0.7?
class 0

In the record for COc1cc2oc(-c3cccc(OC(=O)N4CCN(Cc5ccccc5)CC4)c3)cc(=O)c2c(OC)c1OC , is Ratio IC50 less than 0.7?
class 1

In the record for COc1cc2oc(-c3cccc(OC(=O)N(C)C)c3)cc(=O)c2c(OC)c1OC , is Ratio IC50 less than 0.7?
class 0

In the record for CCN(CC)C(=O)Oc1ccc(-c2cc(=O)c3c(OC)c(OC)c(OC)cc3o2)cc1 , is Ratio IC50 less than 0.7?
class 0
